Recorded values, source patent US20120021972A1.

molecular target: human glucagon receptor (human, UniProt P47871 26-477); assay: cell-based or functional assay
Non-standard residues stand in square brackets, D forms with d. No end group written: not given here. *: point of attachment. Bip(2'-Et-4'-OMe) = CCc1cc(OC)ccc1-c1ccc(C[C@H](N)C(=O)O)cc1; Nva(5-(3,5-Me2Ph)) = Cc1cc(C)cc(CCC[C@H](N)C(=O)O)c1; 2F‑APPA = 2-amino-5-(2-fluorophenyl)pentanoic acid; αMePhe(2-F) = C[C@](N)(Cc1ccccc1F)C(=O)O; hhPhe = N[C@@H](CCCc1ccccc1)C(=O)O; 2,4‑diCl‑APPA = not defined here; aThr = C[C@H](O)[C@H](N)C(=O)O; αMeP = C[C@@]1(C(=O)O)CCCN1; CNB = not defined here; Aib = CC(C)(N)C(=O)O; Moc = COC(=O)*
Readout label: inhibition of cAMP production, 1 µM (pmol/ml/µg prt)
Just the number in pmol/ml/µg prt, nothing appended.

Recorded inhibition of cAMP production, 1 µM, per entry:
Ac-H[Aib][CNB]GT[αMePhe(2-F)]TSD[Bip(2'-Et-4'-OMe)][2F‑APPA] (reading uncertain) [Seq. ID. No. 207: CH3CO-H-Aib-(CNB)-GT-(α-Me-2F-Phe)-TSD-Bip(OMe)-(2F-APPA)] = 0
H[αMeP]QGTFTSD[Bip(2'-Et-4'-OMe)][hhPhe] [Seq. ID. No. 9: H-(α-Me-Pro)-QGTFTSD-Bip(OMe)-(APPA)] = 0
Ac-H[Aib]QG[aThr][αMePhe(2-F)][aThr]SD[Bip(2'-Et-4'-OMe)][2F‑APPA] (also: reduced (CH2) bonds between 9-10 and 10-11) [Seq. ID. No. 199: CH3CO-H-Aib-QG-T(allo)-(α-Me-2F-Phe)-T(allo)-SD-(CH2)-Bip(OMe)-(CH2)-(2F-APPA)] = 0
H[Aib][CNB]G[aThr][αMePhe(2-F)][aThr]SD[Bip(2'-Et-4'-OMe)][2F‑APPA] (reading uncertain; also: thioamide bond between residues 10 and 11) [Seq. ID. No. 168: H-Aib-(CNB)-G-T(allo)-(α-Me-2F-Phe)-T(allo)-SD-Bip(OMe)-(C═S)-(2F-APPA)] = 18

Given H[Aib][CNB]GTFTSD[Bip(2'-Et-4'-OMe)][Nva(5-(3,5-Me2Ph))] (reading uncertain) [Seq. ID. No. 30: H-Aib-(CNB)-GTFTSD-Bip(OMe)-(ADMP)] , state its recorded inhibition of cAMP production, 1 µM.
18

Sample H[Aib]QG[aThr][αMePhe(2-F)][aThr]SD[Bip(2'-Et-4'-OMe)][hhPhe] (also: reduced (CH2) bond between 10 and 11) [Seq. ID. No. 189: H-Aib-QG-T(allo)-(α-Me-2F-Phe)-T(allo)-SD-Bip(OMe)-(CH2)-(APPA)] — what was its inhibition of cAMP production, 1 µM?
0

Please look up its inhibition of cAMP production, 1 µM: Ac-H[Aib]QG[aThr][αMePhe(2-F)][aThr]SD[Bip(2'-Et-4'-OMe)][hhPhe] (also: reduced (CH2) bonds between 9-10 and 10-11) [Seq. ID. No. 197: CH3CO-H-Aib-QG-T(allo)-(α-Me-2F-Phe)-T(allo)-SD-(CH2)-Bip(OMe)-(CH2)-(APPA)]
3

# query: inhibition of cAMP production, 1 µM of entry Moc-H[Aib][CNB]GT[αMePhe(2-F)]TSD[Bip(2'-Et-4'-OMe)][hhPhe] (reading uncertain) [Seq. ID. No. 206: CH3OCO-H-Aib-(CNB)-GT-(α-Me-2F-Phe)-TSD-Bip(OMe)-(APPA)]
0

For the binder HSQGTFTSD[Bip(2'-Et-4'-OMe)][2,4‑diCl‑APPA] (reading uncertain) [Seq. ID. No. 51: HSQGTFTSD-Bip(OMe)-(2,4-diCl-APPA)] , what inhibition of cAMP production, 1 µM is on record?
0
